From: PubChem BioAssay (NCI)

Tested on: HCT-15 colon
Assay: NCI tumour cell line growth inhibition, 48 h; in the data active = GI50 below about 0.43 µM; inactive = the rest
The reply should name one outcome from active, inactive

Asked: Please state the recorded outcome for this compound: `Cc1c2ccncc2c(C)c2c1[nH]c1ccc(O)cc12`
Given back: inactive

Asked: Try the compound `OC[C@H]1C[C@](O)(c2ccccc2Cl)[C@@H](c2ccccc2Cl)O1`
Given back: inactive

Asked: Then what about the compound `Cc1cnc(C(=O)Nc2nc3ccc(S(=O)(=O)Nc4ccc(C(C)(C)C)cc4)cc3[nH]2)cn1` ?
Given back: active

Asked: Similarly, `c1c2c(cc3c1OCO3)-c1ncc3cc4c(cc3c1C2)OCO4` ?
Given back: active

Asked: Query `Cc1ccc2nc(CN(CCN(Cc3nc4ccc(C)cc4[nH]3)Cc3nc4ccc(C)cc4[nH]3)Cc3nc4ccc(C)cc4[nH]3)[nH]c2c1` next
Given back: inactive

Asked: Try the compound `COc1cc(/C=N\Nc2ccccc2)ccc1OC(=O)c1ccccc1`
Given back: active

Asked: Another compound to check: O=C(CC1(O)C(=O)Nc2ccc(Cl)cc21)c1ccc(C(=O)NCC2CCC3(CC2)OOC2(CCCCC2)OO3)cc1 (centres undefined)
Given back: inactive

Asked: Then this compound: `NS(=O)(=O)c1cccc(Nc2cc(-c3ccc(F)cc3)[nH]n2)c1`
Given back: inactive

Asked: Again, but for `N#Cc1ccc2c(-c3ccnc(NC4CC4)n3)c(-c3ccc(F)cc3)nn2c1`
Given back: inactive

Asked: Also `Nc1nc(SCC#CCCl)c2[nH]cnc2n1` , if possible.
Given back: inactive

Asked: Next: CC[C@H](C)[C@H](NC(=O)CN(C)C)C(=O)N(C)[C@H](C[C@@H](OC(C)=O)c1nc(C(=O)NC23C4C5C2C2C3C4C52C(=O)OC)cs1)C(C)C (some centres undefined)
Given back: inactive

Asked: Now try C=C1C(C)C2C(Cc3ccccc3)NC(=O)C23C(OC(C)=O)C=CC(C)(O)C(=O)C(C)C/C=C/C3C1O (centres undefined) .
Given back: inactive

Asked: For CCCCCn1sc(=O)n(Cc2ccc(CNC(=O)C(C)c3ccc(CC(C)C)cc3)cc2)c1=O (centres undefined) then?
Given back: active

Asked: Can you handle `Oc1ccccc1/C=N\NC(=S)Nc1ccc(F)cc1` next?
Given back: inactive
